Test system: HOP-62 NSCLC
experiment: NCI tumour cell line growth inhibition, 48 h
property: GI50

[[record]]
compound = "C=CCN(CC=C)C(=O)c1cc(C)nc2c1c(=O)n(-c1ccccc1)c(=O)n2CC(O)CN1CCN(c2ncccn2)CC1 (stereo not given)"
value_reported = "21.1 µM"

[[record]]
compound = "CC1(C)CC(n2cnc(-c3ccc(F)cc3)c2-c2ccnc(N)n2)CC(C)(C)N1"
value_reported = "> 16.8 µM"

[[record]]
compound = "Cc1ccc(-c2nc(N)nc3c2nnn3Cc2cccc(CO[C@H]3CCOC3)n2)o1"
value_reported = "> 100 µM"

[[record]]
compound = "c1cn2cc(-c3ccc4ncn(C5CCCCC5)c4c3)nc(-c3ccc4c(c3)ncn4C3CCCCC3)c2n1"
value_reported = "2 µM"

[[record]]
compound = "COc1ccc(CNc2c3ccccc3nc3ccc(OC)cc23)cc1"
value_reported = "3.38 µM"


---

Tested on: A549 NSCLC
experiment: NCI tumour cell line growth inhibition, 48 h; in the data active = GI50 below about 0.43 µM; inactive = the rest
Labels: label 1 for active, label 0 for inactive

[[record]]
compound = "CCC[CH2][Sn]([CH2]CCC)([O]C(=O)C(N)CSC)[O]C(=O)C(N)CSC (configuration not stated)"
class = "label 0"

[[record]]
compound = "O=C(Nc1ccc(F)cc1F)c1cc(Br)ccc1O"
class = "label 0"

[[record]]
compound = "O=S(=O)(c1ccc(N=C2NN=C(c3c[nH]c4ccccc34)CS2)cc1)N1CCOCC1"
class = "label 0"

[[record]]
compound = "COc1ccc(-c2nc3ncccn3c2/C=C/C(=O)c2cc(OC)c(OC)c(OC)c2)cc1"
class = "label 0"

[[record]]
compound = "C=CCN1C=CC(=O)[C@H](O[Si](C)(C)C(C)(C)C)[C@@H]1/C=C/c1ccccc1"
class = "label 0"

[[record]]
compound = "Nc1ccc2c3c(n(CCCCl)c(=O)c2c1)-c1cc2c(cc1C3=O)OCO2"
class = "label 0"

[[record]]
compound = "NC(=O)c1ccc2c(-c3ccnc(NCCCO)n3)c(-c3ccc(F)cc3)nn2c1"
class = "label 0"

[[record]]
compound = "COc1cc2cc(C(=O)Nc3cc(N)c4ccccc4c3CCCl)[nH]c2c(OC)c1OC"
class = "label 1"

[[record]]
compound = "CCCN1CCN(c2ccc3nc(-c4ccc5nc(-c6cc(OC)ccc6OC)[nH]c5c4)[nH]c3c2)CC1"
class = "label 0"

[[record]]
compound = "C=C[C@H]1CCC/C=C/[C@@H]2C[C@H](O)C[C@H]2[C@H](O)/C=C/C(=O)O1"
class = "label 1"

[[record]]
compound = "O=C([CH-]C(=O)c1ccccc1)c1ccccc1.O=C([CH-]C(=O)c1ccccc1)c1ccccc1.O=C([CH-]C(=O)c1ccccc1)c1ccccc1.[OH3+].[Y+3]"
class = "label 0"

[[record]]
compound = "O=C(Nc1cc[c]([Sb](=[O])([OH])[OH])cc1)c1ccccc1"
class = "label 0"

[[record]]
compound = "COc1ccc2c(c1)OC1=C(C(=O)OC1)C2c1cc(OC)c(OC)c(OC)c1 (configuration not stated)"
class = "label 0"

[[record]]
compound = "O=P([O-])(O)OP(=O)([O-])O.[NH-][C@@H]1CCCC[C@H]1[NH-].[Pt+4]"
class = "label 0"

[[record]]
compound = "COc1cccc(-c2nc3sccn3c2-c2ccnc(NCCNS(=O)(=O)c3ccccc3)c2)c1"
class = "label 0"

[[record]]
compound = "O=C(CC12CC3CC(CC(C3)C1)C2)NCCOCCOCCOCCNC(=O)c1cc2c(o1)C(=O)c1ccccc1C2=O"
class = "label 1"

[[record]]
compound = "COc1c(Cl)c2c(c(OC)c1OC)-c1ccc(SC)c(=O)cc1[C@@H](NC(=O)OCC(F)(F)F)CC2"
class = "label 1"

